Data origin, for the record: ChEMBL document CHEMBL3769365

Assayed target: Cytochrome P450 2C19 (Homo sapiens, UniProt P33261)
Sequence (P33261 whole entry): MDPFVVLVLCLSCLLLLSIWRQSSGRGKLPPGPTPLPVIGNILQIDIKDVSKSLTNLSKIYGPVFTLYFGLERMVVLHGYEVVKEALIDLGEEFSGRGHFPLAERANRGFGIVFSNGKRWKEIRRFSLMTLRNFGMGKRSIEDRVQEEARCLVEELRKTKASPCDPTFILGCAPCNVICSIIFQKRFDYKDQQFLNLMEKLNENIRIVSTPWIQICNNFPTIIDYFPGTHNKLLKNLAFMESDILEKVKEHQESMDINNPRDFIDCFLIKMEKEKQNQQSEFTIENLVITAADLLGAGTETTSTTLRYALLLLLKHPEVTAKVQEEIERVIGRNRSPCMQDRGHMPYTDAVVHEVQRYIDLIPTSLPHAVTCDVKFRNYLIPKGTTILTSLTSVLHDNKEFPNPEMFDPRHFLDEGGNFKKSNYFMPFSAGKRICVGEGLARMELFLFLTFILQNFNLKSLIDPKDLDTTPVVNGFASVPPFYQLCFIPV
Measurement name: IC50

query: Value wanted: IC50 (Cytochrome P450 2C19 (Homo sapiens, UniProt P33261)) of entry Cc1nc2c([N+](=O)[O-])c(Cl)c(Cl)cc2n1Cc1ccc(B2OC(=O)CN(C)CC(=O)O2)cc1
result: 2930 nM

----------
Assayed target: Cytochrome P450 1A2 (Homo sapiens, UniProt P05177)
Sequence (P05177 whole entry): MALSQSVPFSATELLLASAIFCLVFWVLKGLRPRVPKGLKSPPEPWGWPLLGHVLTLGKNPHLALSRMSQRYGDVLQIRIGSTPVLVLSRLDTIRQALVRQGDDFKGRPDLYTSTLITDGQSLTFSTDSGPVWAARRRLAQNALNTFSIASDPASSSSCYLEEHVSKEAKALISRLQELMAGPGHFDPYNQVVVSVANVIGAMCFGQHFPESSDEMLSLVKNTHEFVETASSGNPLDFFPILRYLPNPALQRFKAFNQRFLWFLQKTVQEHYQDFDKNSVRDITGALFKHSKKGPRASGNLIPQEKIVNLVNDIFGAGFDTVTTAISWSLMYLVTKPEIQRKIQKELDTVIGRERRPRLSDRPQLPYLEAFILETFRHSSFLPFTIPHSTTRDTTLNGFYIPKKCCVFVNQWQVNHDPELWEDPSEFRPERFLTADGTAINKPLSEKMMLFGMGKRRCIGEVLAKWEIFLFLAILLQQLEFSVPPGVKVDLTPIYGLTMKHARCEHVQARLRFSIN
Procedure details: Inhibition of CYP1A2 (unknown origin) using phenacetin as substrate preincubated for 10 mins followed by NADPH addition by LC/MS/MS analysis
Format: ADME
Measurement name: pIC50
Schema: pIC50 number; meaning minus log10 of the concentration expressed in molar units.

query: Which pIC50 value is on record for Cc1nc2c([N+](=O)[O-])c(Cl)c(Cl)cc2n1Cc1ccc(B2OC(=O)CN(C)CC(=O)O2)cc1 ?
result: 3.42
